# System: Staphylococcus aureus
# assay-notes: Antibacterial activity against multidrug-resistant Staphylococcus aureus NRS70 assessed as reduction in bacterial growth incubated for 16 to 18 hrs by two fold serial dilution method
# Assay type: functional
# condition-info: time 16-18 hrs
parameter-measured: MIC (µg/mL)
Express the result in µg/mL but write the number alone.

Example entries begin here.
compound	parameter-measured	unit-abbrev	test-result
O=C(NCc1ccc(OC(=O)c2ccc([N+](=O)[O-])s2)cc1)c1ccc([N+](=O)[O-])s1	MIC	µg/mL	0.78
O=C(NCc1ccc(-c2noc(-c3ccc([N+](=O)[O-])s3)n2)cc1)c1ccc([N+](=O)[O-])s1	MIC	µg/mL	0.2
Cc1cc(CNC(=O)c2ccc([N+](=O)[O-])s2)ccc1OC(=O)c1ccc([N+](=O)[O-])s1	MIC	µg/mL	0.39

Read the next record carefully.
Check Staphylococcus aureus data and give MIC for CN[C@H](CC(C)C)C(=O)N[C@H]1C(=O)N[C@@H](CC(N)=O)C(=O)N[C@H]2C(=O)N[C@H]3C(=O)N[C@H](C(=O)N[C@H](C(=O)O)c4cc(O)cc(O)c4-c4cc3ccc4O)[C@H](O)c3ccc(c(Cl)c3)Oc3cc2cc(c3O[C@@H]2O[C@H](CO)[C@@H](O)[C@H](O)[C@H]2O[C@H]2C[C@](C)(N)[C@H](O)[C@H](C)O2)Oc2ccc(cc2Cl)[C@H]1O [VANCOMYCIN] .
0.39

Numbers sourced from ChEMBL document CHEMBL4765312.
